Target: ErbB2 WT (Homo sapiens (Human), UniProt P04626)
Sequence (P04626 23-1255): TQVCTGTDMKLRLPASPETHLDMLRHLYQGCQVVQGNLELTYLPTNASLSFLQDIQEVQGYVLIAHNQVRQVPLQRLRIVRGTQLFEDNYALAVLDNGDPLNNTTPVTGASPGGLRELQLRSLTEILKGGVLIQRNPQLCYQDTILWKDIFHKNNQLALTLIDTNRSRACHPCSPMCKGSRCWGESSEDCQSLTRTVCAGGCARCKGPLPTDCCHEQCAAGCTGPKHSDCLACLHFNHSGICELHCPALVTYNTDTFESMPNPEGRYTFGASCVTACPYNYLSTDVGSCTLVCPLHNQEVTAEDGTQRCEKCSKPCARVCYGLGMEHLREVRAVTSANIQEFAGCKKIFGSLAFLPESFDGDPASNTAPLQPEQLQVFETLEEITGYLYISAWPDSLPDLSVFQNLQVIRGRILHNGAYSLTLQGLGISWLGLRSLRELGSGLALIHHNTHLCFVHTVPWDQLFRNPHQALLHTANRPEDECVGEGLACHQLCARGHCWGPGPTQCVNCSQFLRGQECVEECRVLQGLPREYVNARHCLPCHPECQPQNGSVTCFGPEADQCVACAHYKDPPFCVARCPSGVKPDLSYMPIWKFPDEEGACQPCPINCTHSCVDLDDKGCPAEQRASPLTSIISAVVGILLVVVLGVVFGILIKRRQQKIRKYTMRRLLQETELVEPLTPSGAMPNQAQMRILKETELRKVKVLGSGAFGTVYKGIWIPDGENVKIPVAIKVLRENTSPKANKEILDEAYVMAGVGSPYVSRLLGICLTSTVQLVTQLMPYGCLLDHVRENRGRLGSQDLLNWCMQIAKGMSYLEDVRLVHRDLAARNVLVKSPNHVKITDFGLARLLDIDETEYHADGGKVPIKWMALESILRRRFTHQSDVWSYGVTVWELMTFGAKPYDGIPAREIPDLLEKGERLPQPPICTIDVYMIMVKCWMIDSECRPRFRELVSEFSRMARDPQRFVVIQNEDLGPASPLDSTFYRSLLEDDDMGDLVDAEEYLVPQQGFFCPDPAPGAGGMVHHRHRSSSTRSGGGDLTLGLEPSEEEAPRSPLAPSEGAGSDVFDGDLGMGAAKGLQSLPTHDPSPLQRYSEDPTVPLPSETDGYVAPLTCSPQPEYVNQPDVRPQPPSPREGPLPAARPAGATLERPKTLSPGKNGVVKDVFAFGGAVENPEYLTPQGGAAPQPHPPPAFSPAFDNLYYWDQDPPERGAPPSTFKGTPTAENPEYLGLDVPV
Experiment: ErbB enzyme assay (CisBio HTRF KinEASE-TK), Assay 2
Assay type: biochemical
Lab note: anything with IC50 below 60 nM is marked 1 (yes); values at 60 nM or higher are marked 0 (no).

Known results for compounds:
*Q* Dear colleague, could you confirm whether IC50 of Cc1cnc(-c2ncc3ncnc(Nc4ccc(Oc5ccc6c(c5)ncn6C)c(C)c4)c3n2)s1 falls below 60 nM? Thanks.
*A* 0 (no)

*Q* Does the reported IC50 of the following compound sit strictly below 60 nM? Cc1cc(Nc2ncnc3cnc(N4CC[C@@H]4C(C)(C)O)nc23)ccc1Oc1ccn2ncnc2c1
*A* 0 (no)

*Q* hey, is IC50 for CO[C@@H]1CCN(c2ncc3ncnc(Nc4ccc(Oc5ccn6ncnc6c5)c(C)c4)c3n2)C1 lower than 60 nM or not?
*A* 1 (yes)

Next:
*Q* Take the compound Cc1cc(Nc2ncnc3cnc(-c4ccncc4)nc23)ccc1Oc1ccc2c(c1)ncn2C [Example 47, bis(2,2,2-trifluoroacetate)] and say whether its IC50 is less than 60 nM.
*A* 0 (no)

*Q* Hello, I'm reviewing records and need to know if IC50 of Cc1cc(Nc2ncnc3cnc(N(C)[C@H]4CCOC4)nc23)ccc1Oc1ccn2ncnc2c1 is below 60 nM. Could you check?
*A* 1 (yes)

*Q* is_below(IC50, 60 nM) for Cn1cnc2cc(Oc3ccc(Nc4ncnc5cnc(N6CC[C@H](C#N)C6)nc45)cc3Cl)ccc21 [Example 152, 2,2,2-trifluoroacetate] ?
*A* 0 (no)

---

Target: ErbB2 insYVMA (HER2-YVMA, SEQ ID NO: 2) (Homo sapiens, UniProt P04626, INS775YVMA/P1170A)
Sequence (P04626 with tags, fused parts or gaps INS775YVMA/P1170A limits assumed): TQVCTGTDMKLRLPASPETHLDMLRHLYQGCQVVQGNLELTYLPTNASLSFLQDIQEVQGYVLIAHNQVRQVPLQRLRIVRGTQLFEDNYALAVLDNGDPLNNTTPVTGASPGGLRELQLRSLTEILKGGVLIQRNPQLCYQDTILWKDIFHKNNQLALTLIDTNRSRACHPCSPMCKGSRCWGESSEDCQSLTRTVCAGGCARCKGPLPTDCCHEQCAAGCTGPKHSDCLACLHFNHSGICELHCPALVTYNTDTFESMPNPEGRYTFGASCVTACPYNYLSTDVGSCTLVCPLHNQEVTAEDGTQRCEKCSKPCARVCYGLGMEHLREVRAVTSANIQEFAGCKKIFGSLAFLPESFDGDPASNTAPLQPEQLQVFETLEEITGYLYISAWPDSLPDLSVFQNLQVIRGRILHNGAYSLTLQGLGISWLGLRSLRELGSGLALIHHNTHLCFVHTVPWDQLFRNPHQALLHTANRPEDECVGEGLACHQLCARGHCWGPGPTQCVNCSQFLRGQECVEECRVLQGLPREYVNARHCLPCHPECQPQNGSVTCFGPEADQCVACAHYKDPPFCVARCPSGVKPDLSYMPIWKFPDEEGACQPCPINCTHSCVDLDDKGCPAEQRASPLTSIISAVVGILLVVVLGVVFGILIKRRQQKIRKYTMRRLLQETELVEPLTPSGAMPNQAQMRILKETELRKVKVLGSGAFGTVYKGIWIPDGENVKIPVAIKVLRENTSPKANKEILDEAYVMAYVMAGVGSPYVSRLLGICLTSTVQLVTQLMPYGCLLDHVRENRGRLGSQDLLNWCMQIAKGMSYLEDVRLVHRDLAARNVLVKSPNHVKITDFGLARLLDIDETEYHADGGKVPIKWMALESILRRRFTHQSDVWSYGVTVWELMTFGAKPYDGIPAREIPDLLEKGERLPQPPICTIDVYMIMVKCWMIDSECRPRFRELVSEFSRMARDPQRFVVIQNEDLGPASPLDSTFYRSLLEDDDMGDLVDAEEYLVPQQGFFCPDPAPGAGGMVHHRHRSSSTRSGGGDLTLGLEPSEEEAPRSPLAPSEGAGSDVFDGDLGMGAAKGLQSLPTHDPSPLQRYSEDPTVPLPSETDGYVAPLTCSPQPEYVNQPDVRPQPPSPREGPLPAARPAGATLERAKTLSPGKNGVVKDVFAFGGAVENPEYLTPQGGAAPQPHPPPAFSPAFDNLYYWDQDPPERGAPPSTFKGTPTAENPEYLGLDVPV
Assay: biochemical
Conditions: ErbB2 insYVMA enzyme assay; read-out: Assay 1 IC50
Test readout: log10 IC50 (log10 of the value in nM)
// stored as log10 of IC50 expressed in nM

Guide cases for log10 IC50, answers given:
*Q* Consider the molecule Cn1cnc2cc(Oc3ccc(Nc4ncnc5cnc(N6CCOC(C)(C)C6)nc45)cc3Cl)ccc21 and give its recorded log10 IC50.
*A* 1.88

*Q* Specify log10 IC50 for Cc1nc(-c2ncc3ncnc(Nc4ccc(Oc5ccc6c(c5)ncn6C)c(C)c4)c3n2)cs1 and stop.
*A* 1.91

*Q* Given Cc1cc(Nc2ncnc3cnc(NOCC(C)(C)O)nc23)ccc1Oc1ccc2c(c1)ncn2C , respond with its log10 IC50.
*A* 1.37

*Q* Please give the documented log10 IC50 of Cc1cc(Nc2ncnc3cnc(N4CCC5COCC54)nc23)ccc1Oc1ccc2c(c1)ncn2C (stereo not shown)
*A* 1.09

*Q* Supply reported log10 IC50 belonging to this molecule: Cc1cc(Nc2ncnc3cnc(N4CC[C@@H](O)C4)nc23)ccc1Oc1ccc2c(c1)ncn2C
*A* 0.93

More entries:
*Q* Fill in reported log10 IC50 for this entry: Cc1cc(Nc2ncnc3cnc(N4CC5(CCC5O)C4)nc23)ccc1Oc1ccc2c(c1)ncn2C (stereo not shown)
*A* 1.65

*Q* // fetch log10 IC50 given entry Cc1c(Oc2ccn3ncnc3c2)ccc(Nc2ncnc3cnc(N[C@H]4CNC[C@H]4F)nc23)c1F
*A* 2.10

---

Target: ErbB2 WT (Homo sapiens (Human), UniProt P04626)
// reported IC50 per item
Please give a number only; it is taken to be in nM.

Consider the worked cases shown below.
*Q* Identify measured IC50 obtained with ErbB2 WT (Homo sapiens (Human), UniProt P04626) for Cc1cc(Nc2ncnc3cnc(N(C)[C@H]4C[C@](C)(O)C4)nc23)ccc1Oc1ccc2c(c1)ncn2C .
*A* 5.9

*Q* Please respond with reported IC50 (system ErbB2 WT (Homo sapiens (Human), UniProt P04626)) for Cc1cc(Nc2ncnc3cnc(N4CCO[C@H]5C[C@H]54)nc23)ccc1Oc1ccc2c(c1)ncn2C [Example 161] .
*A* 28.9

*Q* GET IC50 where system = ErbB2 WT (Homo sapiens (Human), UniProt P04626) and item = Cc1cc(Nc2ncnc3cnc(N4CCN(CC(F)F)CC4)nc23)ccc1Oc1ccc2c(c1)ncn2C
*A* 47.1

Turning now to a further record.
*Q* Output reported IC50 of the compound Cc1cc(Nc2ncnc3cnc(N4CC[C@@](C)(O)C4)nc23)ccc1Oc1ccc2c(c1)ncn2C on ErbB2 WT (Homo sapiens (Human), UniProt P04626).
*A* 8

---

Molecular target: ErbB2 insYVMA (HER2-YVMA, SEQ ID NO: 2) (Homo sapiens, UniProt P04626, INS775YVMA/P1170A)
Assay: biochemical
Conditions: ErbB2 insYVMA enzyme assay; read-out: Assay 1 IC50
Measured IC50, listed per entry for reference.
State just the number; it will be interpreted in µM.

*Q* Jot down IC50 (ErbB2 insYVMA (HER2-YVMA, SEQ ID NO: 2) (Homo sapiens, UniProt P04626, INS775YVMA/P1170A)) of Cc1c(Oc2ccc3c(c2)ncn3C)ccc(Nc2ncnc3cnc(N4CC[C@@H](O)C4)nc23)c1F .
*A* 0.0166

---

Molecular target: MDR1 (P-gp) (Homo sapiens (Human), UniProt P08183)
Sequence (P08183 whole entry): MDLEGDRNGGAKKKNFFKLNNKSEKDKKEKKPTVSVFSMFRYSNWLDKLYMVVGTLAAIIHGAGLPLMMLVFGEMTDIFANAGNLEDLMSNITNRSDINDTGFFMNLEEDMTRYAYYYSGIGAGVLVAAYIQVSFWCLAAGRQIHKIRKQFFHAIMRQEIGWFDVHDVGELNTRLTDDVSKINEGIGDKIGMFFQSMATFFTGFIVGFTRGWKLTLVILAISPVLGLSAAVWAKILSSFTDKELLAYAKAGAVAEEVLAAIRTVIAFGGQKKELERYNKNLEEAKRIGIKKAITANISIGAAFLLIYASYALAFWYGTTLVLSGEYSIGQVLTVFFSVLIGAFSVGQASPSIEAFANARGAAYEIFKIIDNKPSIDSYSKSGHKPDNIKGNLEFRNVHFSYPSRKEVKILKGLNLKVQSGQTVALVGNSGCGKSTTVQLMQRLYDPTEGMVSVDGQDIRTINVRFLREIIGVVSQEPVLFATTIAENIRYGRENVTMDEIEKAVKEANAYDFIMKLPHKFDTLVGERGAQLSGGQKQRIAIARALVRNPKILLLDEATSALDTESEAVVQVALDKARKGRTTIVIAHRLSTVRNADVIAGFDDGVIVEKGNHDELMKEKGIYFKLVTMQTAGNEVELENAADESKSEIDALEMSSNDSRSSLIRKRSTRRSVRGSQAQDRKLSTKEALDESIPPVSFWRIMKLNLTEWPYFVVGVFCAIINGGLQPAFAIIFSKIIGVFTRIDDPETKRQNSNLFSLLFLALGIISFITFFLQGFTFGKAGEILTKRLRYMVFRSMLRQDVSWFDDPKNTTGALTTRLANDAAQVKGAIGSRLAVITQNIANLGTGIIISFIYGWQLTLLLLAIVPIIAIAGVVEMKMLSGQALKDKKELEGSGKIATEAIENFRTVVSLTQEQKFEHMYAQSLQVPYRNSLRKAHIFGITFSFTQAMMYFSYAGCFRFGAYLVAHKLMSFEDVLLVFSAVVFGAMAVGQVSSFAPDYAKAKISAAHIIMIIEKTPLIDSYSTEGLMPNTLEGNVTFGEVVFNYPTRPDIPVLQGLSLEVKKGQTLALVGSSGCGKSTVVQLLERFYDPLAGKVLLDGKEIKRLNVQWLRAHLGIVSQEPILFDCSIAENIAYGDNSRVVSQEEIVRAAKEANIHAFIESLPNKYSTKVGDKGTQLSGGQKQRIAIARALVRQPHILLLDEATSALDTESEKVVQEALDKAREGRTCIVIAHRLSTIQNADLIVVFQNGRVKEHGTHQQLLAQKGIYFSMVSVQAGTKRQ
Assay: MDR1 transfected LLC-PK1 permeability/efflux, Assay 6
Settings: pig, LLC-PK1
# efflux ratio at 2 h, 1 μM listing for each entry below
Respond numerically, and do not add a unit to the figure.

*Q* Indicate the recorded efflux ratio at 2 h, 1 μM value for this compound: Cc1cc(Nc2ncnc3cnc(N4CCC45COC5)nc23)ccc1Oc1cc(F)c2c(c1)ncn2C [Example 216]
*A* 1.7

*Q* Given the compound Cc1cc(Nc2ncnc3cnc(N4CC5(CC5)CO4)nc23)ccc1Oc1ccc2c(c1)ncn2C [Example 187] , write its reported efflux ratio at 2 h, 1 μM.
*A* 2.7

*Q* State its efflux ratio at 2 h, 1 μM: Cc1cc(Nc2ncnc3cnc(N4CC5CC(C4)O5)nc23)ccc1Oc1ccc2c(c1)ncn2C.O=C(O)C(F)(F)F [Example 69]
*A* 2.6

*Q* Give the reported efflux ratio at 2 h, 1 μM for this compound. Cc1cc(Nc2ncnc3cnc(N4CCCC5(COC5)C4)nc23)ccc1Oc1ccc2c(c1)ncn2C [Example 45]
*A* 2.2

Further cases:
*Q* Supply efflux ratio at 2 h, 1 μM value. Item: Cc1cc(Nc2ncnc3cnc(N4CCO[C@@H](C)C4)nc23)ccc1Oc1ccc2c(c1)ncn2C.O=C(O)C(F)(F)F [Example 74]
*A* 1.7

---

pIC50 values by entry
Molecular target: ErbB2 insYVMA (HER2-YVMA, SEQ ID NO: 2) (Homo sapiens, UniProt P04626, INS775YVMA/P1170A)
Assay: biochemical
Conditions: ErbB2 insYVMA enzyme assay; read-out: Assay 1 IC50
Please note pIC50 is a logarithmic value: minus log10 of concentration in mol/L. Answer with that number alone.

*Q* GET pIC50 | system: ErbB2 insYVMA (HER2-YVMA, SEQ ID NO: 2) (Homo sapiens, UniProt P04626, INS775YVMA/P1170A) | item: Cc1cc(Nc2ncnc3cnc(N4CC5CC(C4)O5)nc23)ccc1Oc1ccn2ncnc2c1 [Example 135]
*A* 7.58

*Q* Provide measured pIC50 on ErbB2 insYVMA (HER2-YVMA, SEQ ID NO: 2) (Homo sapiens, UniProt P04626, INS775YVMA/P1170A) for Cc1cc(Nc2ncnc3cnc(N4CCCC(OC(F)F)C4)nc23)ccc1Oc1ccc2c(c1)ncn2C (racemic) [Example 40] please.
*A* 7.15

*Q* Output reported pIC50 of the molecule COc1ncc2ncnc(Nc3ccc(Oc4ccc5c(C)onc5c4)c(C)c3)c2n1 [Example 6] on ErbB2 insYVMA (HER2-YVMA, SEQ ID NO: 2) (Homo sapiens, UniProt P04626, INS775YVMA/P1170A).
*A* 7.61

More entries:
*Q* State measured pIC50 of the molecule Cc1cc(Nc2ncnc3cnc(N4CC(OC(F)F)C4)nc23)ccc1Oc1ccc2c(c1)ncn2C [Example 244] with ErbB2 insYVMA (HER2-YVMA, SEQ ID NO: 2) (Homo sapiens, UniProt P04626, INS775YVMA/P1170A).
*A* 7.38

*Q* Provide measured pIC50 on ErbB2 insYVMA (HER2-YVMA, SEQ ID NO: 2) (Homo sapiens, UniProt P04626, INS775YVMA/P1170A) for Cc1cc(Nc2ncnc3cnc(N(C)CC4(O)CC4)nc23)ccc1Oc1ccn2ncnc2c1 [Example 385] please.
*A* 7.73

---

Target: EGFR (Homo sapiens (Human))
Sequence (P00533 25-1210): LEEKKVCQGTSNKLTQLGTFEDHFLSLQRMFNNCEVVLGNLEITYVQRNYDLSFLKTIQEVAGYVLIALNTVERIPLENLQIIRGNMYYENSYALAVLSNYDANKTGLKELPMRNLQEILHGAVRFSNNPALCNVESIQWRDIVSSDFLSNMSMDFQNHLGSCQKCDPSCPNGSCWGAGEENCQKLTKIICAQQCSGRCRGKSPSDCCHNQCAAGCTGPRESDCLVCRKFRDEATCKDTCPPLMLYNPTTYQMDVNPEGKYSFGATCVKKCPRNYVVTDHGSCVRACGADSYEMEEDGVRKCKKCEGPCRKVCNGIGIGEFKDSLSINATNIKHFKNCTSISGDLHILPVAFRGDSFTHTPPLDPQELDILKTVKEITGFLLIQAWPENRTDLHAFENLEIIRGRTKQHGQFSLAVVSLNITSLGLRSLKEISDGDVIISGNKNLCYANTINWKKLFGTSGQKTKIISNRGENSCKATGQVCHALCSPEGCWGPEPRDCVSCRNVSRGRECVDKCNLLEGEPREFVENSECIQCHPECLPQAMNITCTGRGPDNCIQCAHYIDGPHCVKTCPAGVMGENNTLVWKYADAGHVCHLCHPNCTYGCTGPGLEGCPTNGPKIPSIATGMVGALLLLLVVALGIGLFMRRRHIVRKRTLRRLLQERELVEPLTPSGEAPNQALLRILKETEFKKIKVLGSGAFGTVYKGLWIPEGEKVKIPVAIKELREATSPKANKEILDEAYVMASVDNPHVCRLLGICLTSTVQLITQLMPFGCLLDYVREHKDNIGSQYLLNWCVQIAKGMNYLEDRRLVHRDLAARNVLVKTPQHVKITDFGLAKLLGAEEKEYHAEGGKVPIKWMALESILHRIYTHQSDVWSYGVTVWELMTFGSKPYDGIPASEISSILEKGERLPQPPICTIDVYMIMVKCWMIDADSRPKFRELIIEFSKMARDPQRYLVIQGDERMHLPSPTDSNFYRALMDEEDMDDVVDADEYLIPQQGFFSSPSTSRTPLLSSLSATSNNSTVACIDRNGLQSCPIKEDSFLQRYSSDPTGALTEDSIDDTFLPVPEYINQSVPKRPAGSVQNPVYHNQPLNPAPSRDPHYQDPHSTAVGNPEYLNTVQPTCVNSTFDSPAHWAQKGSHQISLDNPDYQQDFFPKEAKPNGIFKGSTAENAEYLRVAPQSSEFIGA
Each entry below lists one item and its recorded IC50 value.

Before answering, review these 3 worked examples.
*Q* Provide IC50 value for the following molecule: COC1CCN(c2ncc3ncnc(Nc4ccc(Oc5ccn6ncnc6c5)c(C)c4)c3n2)CC1
*A* ≥ 10 µM

*Q* In one line, give reported IC50 of the entry CC1(C)CN(c2ncc3ncnc(Nc4ccc(Oc5ccn6ncnc6c5)c(Cl)c4)c3n2)CC[C@@H]1O .
*A* 2.49 µM

*Q* Provide measured IC50 value, entry: Cc1cc(Nc2ncnc3cnc(N4CC(C(C)(C)O)C4)nc23)ccc1Oc1ccc2c(c1)ncn2C
*A* ≥ 10 µM

Please examine the following record next.
*Q* Give IC50 for Cc1cc(Nc2ncnc3cnc(N4CCP(C)(=O)CC4)nc23)ccc1Oc1ccc2c(c1)ncn2C
*A* ≥ 10 µM
